protocol text: Cytotoxicity against mouse B16 cells assessed as viability at 0.1 uM after 48 hrs by viacount reagent staining technique relative to control
Type: cell-based
condition: read-out: Activity
observable: viability at 48 h, 0.1 µM (%)
The figure you give is taken to be in %; do not add the unit.

query: Could you share which viability at 48 h, 0.1 µM value was measured for C=C(C)[C@@]12OC3(/C=C/CCCCC)O[C@@H]1[C@@H]1[C@@H]4O[C@]4(CO)[C@@H](O)[C@]4(O)C(=O)C(C)=C[C@H]4[C@@]1(O3)[C@H](C)[C@H]2OC(=O)/C=C/c1ccccc1 ?
result: 99.3

query: Could you share which viability at 48 h, 0.1 µM value was measured for C=C(C)[C@@]12OC3(CCCCCCCCC)O[C@@H]1[C@@H]1[C@@H]4O[C@]4(CO)[C@@H](O)[C@]4(O)C(=O)C(C)=C[C@H]4[C@@]1(O3)[C@H](C)[C@H]2OC(=O)/C=C/c1ccc(O)cc1 ?
result: 97.5
